Below: a set of entries, each annotated with reported IC50.
# tgt: human IL-17A / human IL-17RA (Homo sapiens (Human), UniProt Q16552)
# Sequence (Q16552 24-155): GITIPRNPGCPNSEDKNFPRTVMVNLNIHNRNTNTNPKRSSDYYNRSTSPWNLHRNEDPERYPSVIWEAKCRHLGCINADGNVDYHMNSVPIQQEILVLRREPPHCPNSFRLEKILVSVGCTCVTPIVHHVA
# assay name: Human IL-17A biochemical assay (HTRF, blocking of IL-17A binding to IL-17RA)
# reported conditions: 0.4 nM IL-17A, 0.3 nM IL-17RA, max compound concentration 10 uM

compound	IC50 [nM]
COc1ccccc1NC(=O)C1(N2C[C@@H](C(C)C)NC2=O)Cc2ccc(NC(=O)[C@@H](NC(=O)c3nonc3C)C(C3CC3)C3CC3)cc2C1 (stereo partly drawn)	178
CNC(=O)C1(N2C[C@@H](C(C)C)NC2=O)Cc2ccc(NC(=O)C(NC(=O)c3ccnn3C)C3CCC(C(C)(C)C)CC3)cc2C1 (stereo partly drawn)	192
CC(C)[C@@H]1CN(C2(C(=O)NC34CC5CC(CC(C5)C3)C4)Cc3ccc(NC(=O)[C@@H](NC(=O)c4ccnn4C)C4CCCCC4)cc3C2)C(=O)N1 (stereo partly drawn)	129
Cc1nonc1C(=O)N[C@H](C(=O)Nc1ccc2c(c1)CC(N1C[C@@H](C(F)(F)F)NC1=O)C2)C(C1CC1)C1CC1 (stereo partly drawn)	768
CNC(=O)C1(N2CC(CC(C)C)NC2=O)Cc2ccc(NC(=O)[C@@H](NC(=O)c3ccnn3C)C3CCCCC3)cc2C1 (stereo partly drawn)	2340
Cc1nonc1C(=O)N[C@H](C(=O)Nc1ccc2c(c1)CC(C#N)(N1CC3(CC3)CNC1=O)C2)C(C1CC1)C1CC1 (stereo partly drawn)	50.4
Cc1nonc1C(=O)N[C@H](C(=O)Nc1ccc2c(c1)CC(C(=O)Nc1ccccc1C(C)C)(N1C[C@@H](C(C)C)NC1=O)C2)C(C1CC1)C1CC1 (stereo partly drawn)	110
CNC(=O)C1(N2CC3(CCC3)CNC2=O)Cc2ccc(NC(=O)[C@@H](NC(=O)c3nonc3C)C3CCCCC3)cc2C1 (stereo partly drawn)	15
Cc1ccc(F)cc1NC(=O)C1(N2CC3(CC3)CNC2=O)Cc2ccc(NC(=O)[C@@H](NC(=O)c3nonc3C)C3CCC(F)(F)CC3)cc2C1 (stereo partly drawn)	107
Cc1nonc1C(=O)N[C@H](C(=O)Nc1ccc2c(c1)CC(C(=O)Nc1ccccc1)(N1C[C@@H](C(C)C)NC1=O)C2)C1CCC(F)(F)CC1 (stereo partly drawn)	250
Cc1nonc1C(=O)N[C@H](C(=O)Nc1ccc2c(c1)CC(C(=O)Nc1cccc(F)c1)(N1CC3(CC3)CNC1=O)C2)C1CCC(F)(F)CC1 (stereo partly drawn)	63.9
CNC(=O)C1(N2C[C@@H](Cc3ccccc3)NC2=O)Cc2ccc(NC(=O)[C@@H](NC(=O)c3ccnn3C)C3CCCCC3)cc2C1 (stereo partly drawn)	112
